Tested on: IgG (hyperimmune antiserum) PCA reaction
EXPERIMENT_DESCRIPTION: Oral activity in PCA test, IgG
Type: in vivo
CONDITION_SUMMARY: Rattus norvegicus, 30 mg./kg., Table I amides, read-out: Oral Activity (% of Protection) in the PCA Test, IgG
Protocol: The antiallergy property of the compounds of this invention is evaluated by the passive cutaneous anaphylaxis (PCA) test (Ovary, J. Immun., 81, 355, 1958). […] The test animals are then asphyxiated and the intensity of the reaction determined by measuring the diameter and intensity of the blue coloration on the inner surface of the animals' skin. The ability of agents to interfere with PCA reactions is measured in male Charles River Wistar rats, 170-210 g. […]
Classify as follows. Reported inhibition in vivo at 30 mg/kg greater than or equal to 50%: 1. Reported inhibition in vivo at 30 mg/kg below: 0.

STRUCTURE_SMILES_STRING: CCc1c(C)sc2ncc(C(=O)Nc3nnn[nH]3)c(=O)n12
CLASS_NAME: 1
--
STRUCTURE_SMILES_STRING: O=C(Nc1nnn[nH]1)c1cnc2sc3c(n2c1=O)CCCCC3
CLASS_NAME: 0
--
STRUCTURE_SMILES_STRING: CCc1cn2c(=O)c(C(=O)Nc3nnn[nH]3)cnc2s1
CLASS_NAME: 1
--
STRUCTURE_SMILES_STRING: CC(C)c1csc2ncc(C(=O)Nc3nnn[nH]3)c(=O)n12
CLASS_NAME: 1
--
STRUCTURE_SMILES_STRING: Cc1cn2c(=O)c(C(=O)Nc3nnn[nH]3)cnc2s1
CLASS_NAME: 1
--
STRUCTURE_SMILES_STRING: O=C(Nc1nnn[nH]1)c1cnc2sc3c(n2c1=O)CCCCCC3
CLASS_NAME: 1
--
STRUCTURE_SMILES_STRING: O=C(Nc1nnn[nH]1)c1cnc2sccn2c1=O
CLASS_NAME: 0
--
STRUCTURE_SMILES_STRING: CC(C)(C)c1csc2ncc(C(=O)Nc3nnn[nH]3)c(=O)n12
CLASS_NAME: 0
--
STRUCTURE_SMILES_STRING: CCc1csc2ncc(C(=O)Nc3nnn[nH]3)c(=O)n12
CLASS_NAME: 0
--
STRUCTURE_SMILES_STRING: CCc1sc2ncc(C(=O)Nc3nnn[nH]3)c(=O)n2c1C
CLASS_NAME: 0

* * *

Tested on: IgE (reaginic antiserum) PCA reaction
EXPERIMENT_DESCRIPTION: Oral activity in PCA test, IgE
Type: in vivo, rat
CONDITION_SUMMARY: Rattus norvegicus; IgE; oral; 30 mg./kg.; Table I amides; read-out: Oral Activity (% of Protection) in the PCA Test, IgE
Label Not fulfilled if inhibition in vivo at 30 mg/kg falls below 80%; label Fulfilled in every other case.

STRUCTURE_SMILES_STRING: CC(C)c1csc2ncc(C(=O)Nc3nnn[nH]3)c(=O)n12
CLASS_NAME: Not fulfilled
//
STRUCTURE_SMILES_STRING: O=C(Nc1nnn[nH]1)c1cnc2sc3c(n2c1=O)CCCCCC3
CLASS_NAME: Fulfilled
//
STRUCTURE_SMILES_STRING: CCc1cn2c(=O)c(C(=O)Nc3nnn[nH]3)cnc2s1
CLASS_NAME: Fulfilled
//
STRUCTURE_SMILES_STRING: O=C(Nc1nnn[nH]1)c1cnc2sccn2c1=O
CLASS_NAME: Not fulfilled
//
STRUCTURE_SMILES_STRING: CCc1sc2ncc(C(=O)Nc3nnn[nH]3)c(=O)n2c1C
CLASS_NAME: Not fulfilled
//
STRUCTURE_SMILES_STRING: CC(C)(C)c1csc2ncc(C(=O)Nc3nnn[nH]3)c(=O)n12
CLASS_NAME: Not fulfilled
//
STRUCTURE_SMILES_STRING: CCc1c(C)sc2ncc(C(=O)Nc3nnn[nH]3)c(=O)n12
CLASS_NAME: Not fulfilled

* * *

Tested on: ethanol-induced ulcer
EXPERIMENT_DESCRIPTION: Ethanol-induced rat ulcer assay
Assay type: in vivo
CONDITION_SUMMARY: oral, 5 mg./kg.; Table III
ENDPOINT_NAME: % Inhibition in the Ethanol-Induced Rat Ulcer Assay, amides (%)

MOLECULE: Cc1cn2c(=O)c(C(=O)Nc3nnn[nH]3)cnc2s1 [Formula I: R1=CH3, R2=H]
SYSTEM_TESTED: ethanol-induced ulcer
OBSERVED_VALUE: 72

MOLECULE: O=C(Nc1nnn[nH]1)c1cnc2sc3c(n2c1=O)CCCCCC3 [Formula I: (CH2)6]
SYSTEM_TESTED: ethanol-induced ulcer
OBSERVED_VALUE: 45

MOLECULE: Cc1csc2ncc(C(=O)Nc3nnn[nH]3)c(=O)n12 [Formula I: R1=H, R2=CH3]
SYSTEM_TESTED: ethanol-induced ulcer
OBSERVED_VALUE: 59

MOLECULE: CCc1cn2c(=O)c(C(=O)Nc3nnn[nH]3)cnc2s1 [Formula I: R1=C2H5, R2=H]
SYSTEM_TESTED: ethanol-induced ulcer
OBSERVED_VALUE: 86

MOLECULE: CCc1sc2ncc(C(=O)Nc3nnn[nH]3)c(=O)n2c1CC [Formula I: R1=C2H5, R2=C2H5]
SYSTEM_TESTED: ethanol-induced ulcer
OBSERVED_VALUE: 10

MOLECULE: Cc1sc2ncc(C(=O)Nc3nnn[nH]3)c(=O)n2c1C [Formula I: R1=CH3, R2=CH3]
SYSTEM_TESTED: ethanol-induced ulcer
OBSERVED_VALUE: 96

* * *

EXPERIMENT_DESCRIPTION: Cardiovascular effects in anesthetized dogs
Assay type: in vivo, dog
CONDITION_SUMMARY: dog, in vivo; cumulative intravenous doses; read-out: ratio of cardiovascular-effect dose to maximally effective intravenous antiallergy dose
ENDPOINT_NAME: selectivity ratio

STRUCTURE_SMILES_STRING: O=C(Nc1nnn[nH]1)c1cnc2sc3c(n2c1=O)CCCC3
OBSERVED_VALUE: 5 to 15

* * *

Tested on: IgE (reaginic antiserum) PCA reaction
EXPERIMENT_DESCRIPTION: Oral activity in PCA test, IgE
Format: in vivo, rat
CONDITION_SUMMARY: Rattus norvegicus; IgE; oral; 30 mg./kg.; Table I amides; read-out: Oral Activity (% of Protection) in the PCA Test, IgE

MOLECULE: CCc1sc2ncc(C(=O)Nc3nnn[nH]3)c(=O)n2c1CC [Formula I: R1=C2H5, R2=C2H5]
SYSTEM_TESTED: IgE (reaginic antiserum) PCA reaction
inhibition in vivo at 30 mg/kg, %: 62
//
MOLECULE: CCc1csc2ncc(C(=O)Nc3nnn[nH]3)c(=O)n12 [Formula I: R1=H, R2=C2H5]
SYSTEM_TESTED: IgE (reaginic antiserum) PCA reaction
inhibition in vivo at 30 mg/kg, %: 70
//
MOLECULE: O=C(Nc1nnn[nH]1)c1cnc2sc3c(n2c1=O)CCCCC3 [Formula I: (CH2)5]
SYSTEM_TESTED: IgE (reaginic antiserum) PCA reaction
inhibition in vivo at 30 mg/kg, %: 25
//
MOLECULE: Cc1cn2c(=O)c(C(=O)Nc3nnn[nH]3)cnc2s1 [Formula I: R1=CH3, R2=H]
SYSTEM_TESTED: IgE (reaginic antiserum) PCA reaction
inhibition in vivo at 30 mg/kg, %: 78
